Values were extracted from patent US11472803B2.

target: human M2 receptor (Homo sapiens); assay: Functional M2-GIRK1/4 activation test: allosteric potency (EC50) and efficiency at EC20 acetylcholine; details: CHO-DUKX-M2-GIRK cells; voltage-sensitive dye; acetylcholine at EC20; in some cases mean of two or more determinations
pEC50: −log10 of the molar value.
READOUT LABEL: pEC50

CC(C)(C)C(NC(=O)c1cn(-c2c(F)cc(F)cc2F)c2nc(N3CC4(COC4)C3)c(F)cc2c1=O)C(F)(F)C(F)(F)F (single isomer, unassigned) [Example 213]
7.89

(I) O=C(NCC(F)(F)F)c1cn(-c2c(F)cc(F)cc2F)c2nc(N3C[C@@H](O)[C@H](O)C3)c(F)cc2c1=O [Example 220]
(II) CC(NC(=O)c1cn(-c2c(F)cc(F)cc2F)c2nc(N3CC(CO)(CO)C3)c(F)cc2c1=O)C(F)(F)C(F)(F)F (racemic) [Example 168]
Task item: Of the pair I and II , name the member with the lesser recorded pEC50. # respond with the chosen item's label
Reply: I
(I: 7.10, II: 8.40)

* * *

Biological target: human M2 receptor (Homo sapiens, UniProt P08172)
Construct: expressed in transfected cells; host or cells: CHO-DUKX (CHO-DUKX-M2-GIRK)
Sequence (P08172 1-466): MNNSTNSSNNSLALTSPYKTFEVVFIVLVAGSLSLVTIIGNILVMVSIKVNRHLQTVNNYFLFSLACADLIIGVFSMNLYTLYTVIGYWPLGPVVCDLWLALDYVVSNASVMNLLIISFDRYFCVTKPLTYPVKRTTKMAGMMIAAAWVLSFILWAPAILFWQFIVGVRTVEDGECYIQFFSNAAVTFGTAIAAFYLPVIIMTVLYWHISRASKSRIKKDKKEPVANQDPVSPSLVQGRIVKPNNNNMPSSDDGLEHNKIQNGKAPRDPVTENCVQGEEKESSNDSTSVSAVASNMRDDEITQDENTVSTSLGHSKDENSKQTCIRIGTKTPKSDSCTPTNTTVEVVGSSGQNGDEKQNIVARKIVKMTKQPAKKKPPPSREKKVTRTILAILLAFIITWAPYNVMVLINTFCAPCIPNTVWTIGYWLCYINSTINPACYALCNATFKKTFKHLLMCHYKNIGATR
Experiment: Functional M2-GIRK1/4 activation test: positive cooperativity (α factor), shift of acetylcholine dose-response curve
Assay type: cell-based
Settings: Allosteric EC50 shift of acetylcholine 8-point dose-response curve; CHO-DUKX-M2-GIRK cells; α>1 = positive cooperativity
READOUT LABEL: Cooperativity (alpha factor)

CC(C)(CC(F)(F)F)NC(=O)c1cn(-c2c(F)cc(F)cc2F)c2nc(N3C[C@@H](O)[C@H](O)C3)c(F)cc2c1=O [Example 13]
49

(a) O=C(NC(C1CC1)C(F)(F)C(F)(F)F)c1cn(-c2c(F)cc(F)cc2F)c2nc(N3CC(CO)(CO)C3)c(F)cc2c1=O (single isomer, unassigned) [Example 205]
(b) CC(C)(NC(=O)c1cn(-c2c(F)cc(F)cc2Cl)c2nc(N3C[C@@H](O)[C@H](O)C3)c(F)cc2c1=O)C(F)(F)F [Example 41]
Task item: Pick one, a or b : lowest reported Cooperativity (alpha factor). Answer = label.
Reply: a

* * *

target: UniProt P08172; experiment: Functional M2-GIRK1/4 activation test: allosteric potency (EC50) and efficiency at EC20 acetylcholine; details: CHO-DUKX-M2-GIRK cells; voltage-sensitive dye; acetylcholine at EC20; in some cases mean of two or more determinations
pEC50: −log10 of the molar value.
READOUT LABEL: pEC50

CC(NC(=O)c1cn(-c2ncc(F)cc2F)c2nc(N3CC(O)C(O)C3)c(F)cc2c1=O)C(F)(F)C(F)(F)F (single isomer, unassigned) [Example 46]
7.29
C[C@H](O)CN(C)c1nc2c(cc1F)c(=O)c(C(=O)N[C@@H](C1CC1)C(F)(F)F)cn2-c1c(F)cc(F)cc1F
7.92

(P) O=C(NC(C(F)(F)F)C(F)(F)F)c1cn(-c2ncc(F)cc2F)c2nc(N3CCCC[C@@H]3CO)c(F)cc2c1=O
(Q) CC(C)C(NC(=O)c1cn(-c2c(F)cc(F)cc2F)c2nc(N3C[C@@H](O)[C@@H](O)C3)c(F)cc2c1=O)C(C)C
(R) O=C(NC(C(F)(F)F)C(F)(F)F)c1cn(-c2ncc(F)cc2F)c2nc(N3CCC[C@@H]3CO)c(F)cc2c1=O
(S) CC(C)(C)NC(=O)c1cn(-c2c(F)cc(F)cc2F)c2nc(N3C[C@@H](O)[C@@H](O)C3)c(F)cc2c1=O
Task item: // sort entries: pEC50, high to low Reply with the labels, ordered as the question asks.
Reply: Q, S, R, P

* * *

Molecular target: human M2 receptor (Homo sapiens, UniProt P08172)
Construct: expressed in transfected cells; host or cells: CHO-DUKX (CHO-DUKX-M2-GIRK)
Sequence (P08172 1-466): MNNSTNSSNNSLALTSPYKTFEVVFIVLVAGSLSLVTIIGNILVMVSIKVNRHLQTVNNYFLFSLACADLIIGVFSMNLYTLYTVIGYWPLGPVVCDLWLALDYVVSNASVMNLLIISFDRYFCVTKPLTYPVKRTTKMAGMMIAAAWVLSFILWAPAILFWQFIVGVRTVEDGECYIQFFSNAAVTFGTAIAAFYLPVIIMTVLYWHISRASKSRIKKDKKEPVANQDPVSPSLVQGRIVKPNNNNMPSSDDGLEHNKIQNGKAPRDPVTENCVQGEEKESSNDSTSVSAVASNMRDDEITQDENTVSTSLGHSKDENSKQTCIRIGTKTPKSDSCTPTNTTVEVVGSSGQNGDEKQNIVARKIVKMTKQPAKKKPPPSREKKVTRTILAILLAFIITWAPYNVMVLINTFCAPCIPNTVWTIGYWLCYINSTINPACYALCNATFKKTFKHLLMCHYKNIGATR
Assay: Functional M2-GIRK1/4 activation test: positive cooperativity (α factor), shift of acetylcholine dose-response curve
Assay type: cell-based
Conditions: Allosteric EC50 shift of acetylcholine 8-point dose-response curve; CHO-DUKX-M2-GIRK cells; α>1 = positive cooperativity
READOUT LABEL: Cooperativity (alpha factor)

Take a look at these entries with their results.
CC(C)(NC(=O)c1cn(-c2c(F)cc(F)cc2F)c2nc(N3C[C@@H](O)[C@H](O)C3)c(Br)cc2c1=O)C(F)(F)F
45
CC[C@H](NC(=O)c1cn(-c2c(F)cc(F)cc2Cl)c2nc(N3C[C@@H](O)[C@H](O)C3)c(F)cc2c1=O)C(F)(F)F (single isomer, unassigned)
42

(1) CC(C)(NC(=O)c1cn(-c2c(F)cc(F)cc2F)c2nc(N3C[C@@H](O)[C@H](O)C3)c(F)cc2c1=O)C(F)F
(2) CCN(CC(C)O)c1nc2c(cc1F)c(=O)c(C(=O)N[C@@H](C1CC1)C(F)(F)F)cn2-c1c(F)cc(F)cc1F (mixture of isomers)
(3) O=C(NC(C(F)(F)F)C(F)(F)F)c1cn(-c2c(F)cc(F)cc2F)c2nc(N3C[C@@H](O)[C@H](O)C3)c(F)cc2c1=O
(4) O=C(N[C@@H](C1CC1)C(F)(F)F)c1cn(-c2c(F)cc(F)cc2Cl)c2nc(N3CC(CO)(CO)C3)c(F)cc2c1=O (single isomer, unassigned)
Task item: Please rank these compounds by Cooperativity (alpha factor) in descending order. Record the ranking as a list of labels in the requested order.
Reply: 3, 1, 4, 2

* * *

Biological target: human M2 receptor (Homo sapiens, UniProt P08172)
Test: Functional M2-GIRK1/4 activation test: allosteric potency (EC50) and efficiency at EC20 acetylcholine
Settings: CHO-DUKX-M2-GIRK cells; voltage-sensitive dye; acetylcholine at EC20; in some cases mean of two or more determinations
From the text: The binding of orthosteric agonists (endogenous ligand: acetylcholine) to the M2 receptor leads to receptor activation or a change in conformation of the receptor in the manner of a shift in equilibrium in favour of the active receptor conformation. The agonist-induced change in conformation of the M2 receptor results in a Gαi protein activation. […] Under physiological conditions, the result is then a selective efflux of potassium from the cell along the electrochemical gradient. […]
pEC50: −log10 of the molar value.
READOUT LABEL: pEC50

CC[C@H](NC(=O)c1cn(-c2ncc(F)cc2F)c2nc(N3CC[C@H](O)C3)c(F)cc2c1=O)C(F)(F)F
7.28
C[C@@H](NC(=O)c1cn(-c2c(F)cc(F)cc2Cl)c2nc(N3C[C@@H](O)[C@H](O)C3)c(F)cc2c1=O)C(F)(F)F (single isomer, unassigned) [Example 228]
8.19

(a) CC(NC(=O)c1cn(-c2c(F)cc(F)cc2F)c2nc(N3CCC(O)(CO)CC3)c(F)cc2c1=O)C(F)(F)C(F)(F)F (single isomer, unassigned)
(b) Cc1cc(F)cc(C)c1-n1cc(C(=O)N[C@@H](C2CC2)C(F)(F)F)c(=O)c2cc(F)c(N3C[C@@H](O)[C@H](O)C3)nc21
(c) CC(C)(NC(=O)c1cn(-c2c(F)cc(F)cc2F)c2nc(N3C[C@@H](O)[C@H](O)C3)c(F)cc2c1=O)C(F)F
(d) O=C(N[C@@H](C1CC1)C(F)(F)F)c1cn(-c2c(F)cc(F)cc2F)c2nc(N3CCOCC3)c(F)cc2c1=O
Task item: Would you mind ranking these molecules by ascending pEC50? Please list the labels in the order you were asked to rank them.
Reply: b, d, c, a
(b: 7.14, d: 7.80, c: 8.00, a: 8.24)
